Value source: paper PMC12254070

- System: Klebsiella quasipneumoniae ATCC 700603
- Assay type: cell-based
- conditionLabel: ATCC 700603, 24 h
Ends that are not written are not given here.
Measured MBC K.q by item
// units = µM; emit number, no label

Some sequences with recorded MBC K.q:
constructSequence	measureUnit	MBC K.q
LKRLAKLLKKWIKA [OrP4M]	µM	14.1
FKKLLKFLKWLF [VeP1]	µM	28.3
LAKRWLKLLGKLAK [OrP1M]	µM	15.8
IGKVWKVAKKLIKI [OrP9M]	µM	15.6
AGLKKLAKKLGKVVL [OrP3]	µM	27.8

Then this sequence:
Q: Record request: MBC K.q value, item AIVKKIGKIWKNFIK [VeP2M]
A: 62.6

====

Listing: pIC50 of selected sequences
- Tested on: S. aureus ATCC 25923
- Format: cell-based, Staphylococcus aureus
- conditionLabel: ATCC 25923, 24 h
Ends that are not written are not given here.
FYI, pIC50 means -log10 of a concentration in mol per litre.

constructSequence	measuredTarget	experimentalValue
LKRLAKLLKKWIKA [OrP4M]	S. aureus ATCC 25923	5.47

Q: I would be grateful if you could share the reported pIC50 for AGLKKLAKKLGKVVL [OrP3] .
A: 5.00

====

The following sequences are listed with their measured pIC50 values.
- Test system: human lung adenocarcinoma (A549) cells
- Type: cell-based
- conditionLabel: 24 h
Ends that are not written are not given here.
Lab note: report pIC50 as minus log10 of the concentration in molar units, number only.

constructSequence	experimentalValue
IGKVWKVAKKLIKI [OrP9M]	4.60
AIVKKIGKIWKNFIK [VeP2M]	4.46
AGLKKLAKKLGKVVL [OrP3]	4.48
LAKRWLKLLGKLAK [OrP1M]	4.68
AGLARKWLKLPIGVLAR [OrP1]	4.66

Moving on to another sequence below.
Q: Look at this sequence and give its reported pIC50. IKPVVKGIKGVKNFFK [VeP2]
A: 4.16

====

- Tested on: human red blood cells
- conditionLabel: red cells of human, 3 h, 50
Ends that are not written are not given here.
Below, each entry is listed with its recorded % Hemolysis at 50 µM.
Dear colleague, please return just the value in %, with no unit written.

constructSequence	measureUnit	% Hemolysis at 50 µM
AIVKKIGKIWKNFIK [VeP2M]	%	7.1
AGLKKLAKKLGKVVL [OrP3]	%	0.0

Q: Give the measured % Hemolysis at 50 µM of IKPVVKGIKGVKNFFK [VeP2] .
A: 3.0

Q: Bench note: what % Hemolysis at 50 µM did AGLARKWLKLPIGVLAR [OrP1] show?
A: 1.2

====

- Tested on: Escherichia coli ATCC 25922
- Assay type: cell-based
- conditionLabel: ATCC 25922, 24 h
Ends that are not written are not given here.
A collection of sequences and their measured pIC50
Keep it numeric: pIC50 is minus log10 of the concentration in mol/L.

Study these solved cases before continuing.
constructSequence	pIC50
AGLKKLAKKLGKVVL [OrP3]	5.80
LKRLAKLLKKWIKA [OrP4M]	5.66
AIVKKIGKIWKNFIK [VeP2M]	5.80
IKPVVKGIKGVKNFFK [VeP2]	4.64
LAKRWLKLLGKLAK [OrP1M]	5.82
FKLFCVAKRLPKKVL [OrP9]	5.31
FKKLLKFLKWLF [VeP1]	5.24
AGLARKWLKLPIGVLAR [OrP1]	5.24

Q: # query: pIC50 of entry AKLLGKLLRKKIGVL [OrP4]
A: 4.83

Q: What pIC50 value was documented for this sequence, IGKVWKVAKKLIKI [OrP9M] ?
A: 5.49

====

Each record here notes measured MHC (minimum hemolytic concentration).
- Tested on: human red blood cells
- conditionLabel: red cells of human, 3 h
Ends that are not written are not given here.
The reply should be a number in µM, with the unit left off.

Field: example entries. Status: answers known.
constructSequence	measureUnit	MHC (minimum hemolytic concentration)
AKLLGKLLRKKIGVL [OrP4]	µM	28.98
FKKLLKFLKWLF [VeP1]	µM	4.25
LKRLAKLLKKWIKA [OrP4M]	µM	59.91

Q: Quick check: MHC (minimum hemolytic concentration) of AIVKKIGKIWKNFIK [VeP2M] ?
A: 68.64

====

sequences and their reported MBC S.a
- Tested on: S. aureus ATCC 25923
- Format: cell-based, Staphylococcus aureus
- conditionLabel: ATCC 25923, 24 h
Ends that are not written are not given here.

Sample records with MBC S.a:
constructSequence	MBC S.a
FKLFCVAKRLPKKVL [OrP9]	> 119.2 (> 119.2) µM
AGLARKWLKLPIGVLAR [OrP1]	> 99.3 (> 99.3) µM
AKLLGKLLRKKIGVL [OrP4]	> 125.2 (> 125.2) µM

Okay, now this sequence:
Q: Could you share what MBC S.a was measured for IKPVVKGIKGVKNFFK [VeP2] , tested on S. aureus ATCC 25923?
A: > 102.9 µM

====

- Tested on: Klebsiella quasipneumoniae ATCC 700603
- Format: cell-based
- conditionLabel: ATCC 700603, 24 h
Ends that are not written are not given here.
propertyLabel: MBC K.q

constructSequence	MBC K.q
IKPVVKGIKGVKNFFK [VeP2]	> 103 µM
AGLARKWLKLPIGVLAR [OrP1]	> 99.3 µM
FKLFCVAKRLPKKVL [OrP9]	> 119.2 (> 119.2) µM

Shift focus to the following entry.
Q: Please look up its MBC K.q: AKLLGKLLRKKIGVL [OrP4]
A: > 125.2 (> 125.2) µM

====

- Tested on: S. aureus ATCC 25923
- Type: cell-based, Staphylococcus aureus
- conditionLabel: ATCC 25923, 24 h
pIC50: −log10 of the molar value. Ends that are not written are not given here.
Please use 1 whenever pIC50 is not below 5, and 0 whenever it is.

Q: Check this sequence for pIC50 at or above 5: IGKVWKVAKKLIKI [OrP9M]
A: 1

====

A collection of sequences and their measured log10(IC50)
- Tested on: S. aureus ATCC 25923
- Assay type: cell-based, Staphylococcus aureus
- conditionLabel: ATCC 25923, 24 h
Ends that are not written are not given here.
// do not treat as linear: log10 of IC50, unit µM

Below, 4 sequences whose answers are already recorded.
constructSequence	log10(IC50)
AGLARKWLKLPIGVLAR [OrP1]	1.38
LAKRWLKLLGKLAK [OrP1M]	0.36
FKKLLKFLKWLF [VeP1]	0.32
IKPVVKGIKGVKNFFK [VeP2]	1.73

Q: Need log10(IC50) of AIVKKIGKIWKNFIK [VeP2M] , thanks.
A: 0.90
